Where do these numbers come from? They come from patent US20240325555A1.

# System tested: T1, human LIV-1 (human, UniProt Q13433 29-755)
# T1 sequence (looked up): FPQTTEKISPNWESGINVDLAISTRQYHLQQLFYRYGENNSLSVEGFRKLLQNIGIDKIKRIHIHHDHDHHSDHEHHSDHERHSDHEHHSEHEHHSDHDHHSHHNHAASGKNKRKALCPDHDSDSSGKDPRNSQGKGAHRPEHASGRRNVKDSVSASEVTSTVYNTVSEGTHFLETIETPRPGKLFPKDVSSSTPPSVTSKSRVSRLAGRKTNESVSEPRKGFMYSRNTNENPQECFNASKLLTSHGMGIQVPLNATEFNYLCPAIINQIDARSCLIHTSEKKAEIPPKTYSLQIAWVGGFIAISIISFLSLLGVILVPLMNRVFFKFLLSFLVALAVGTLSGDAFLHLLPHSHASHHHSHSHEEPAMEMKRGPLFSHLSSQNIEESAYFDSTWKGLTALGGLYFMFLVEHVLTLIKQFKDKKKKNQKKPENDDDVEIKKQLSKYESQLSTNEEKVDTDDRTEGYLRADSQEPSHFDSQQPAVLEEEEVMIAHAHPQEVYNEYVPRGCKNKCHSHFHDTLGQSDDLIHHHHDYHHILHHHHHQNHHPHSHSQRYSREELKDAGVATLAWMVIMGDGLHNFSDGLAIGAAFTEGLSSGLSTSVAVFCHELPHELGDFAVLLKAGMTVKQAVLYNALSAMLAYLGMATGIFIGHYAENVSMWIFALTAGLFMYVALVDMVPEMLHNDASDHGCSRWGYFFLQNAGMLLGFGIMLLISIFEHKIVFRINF
# Protocol notes: cell-based or functional assay
Measured endpoint: Internalization EC50 (nM)
Output spec: scalar in nM, unitless text.

Before answering, review these 3 worked examples.
Binder	Measured endpoint	Result number
290F10G10 (antibody, V domains shown, Tested as chimeric antibody) VH: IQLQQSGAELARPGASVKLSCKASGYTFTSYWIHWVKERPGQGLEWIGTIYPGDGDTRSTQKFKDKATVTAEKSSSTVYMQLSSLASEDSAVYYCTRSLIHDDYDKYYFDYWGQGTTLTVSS VL: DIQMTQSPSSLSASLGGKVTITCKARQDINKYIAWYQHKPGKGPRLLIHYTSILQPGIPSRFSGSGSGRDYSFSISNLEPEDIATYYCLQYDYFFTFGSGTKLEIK	Internalization EC50	3.5
127A2B9 (antibody, V domains shown, Tested as chimeric antibody) VH: EVQLQESGPSLVKPSQTLSLTCSVTGDSITSGYWNWIRKLPGNKLEYMGYISYSGSTYYNPSLKSRISITRDTSKNQYYLQLNSVTTEDTATYYCARIYYDYDGYFDVWGAGTTVTVSS VL: DIVMTQAAPSVPVTPGESVSISCRSSKSLLHSNGNTFLYWFLQRPGQSPQLLIYRMSNLASGVPDRFSGSGSGTAFTLRISRVEAEDVGVYYCMQHLEYPYTFGGGTKLEIK	Internalization EC50	51.8
108H1D4 (antibody, V domains shown, Tested as chimeric antibody) VH: EVKLVESGGDLVQPGGSRKLSCAASGFTFSDYGMAWFRQAPGKGPEWVAFISNLAYNIYYADTVTGRFTISRENARNTLYLEMSSLRSEDTAMYYCAREGGITTVPATDYFDYWGQGTTLTVSS VL: DIQMTQTTSSLSASLGDRVTFSCRASQDIRNYLNWYQQKPDGTVKLLIYYTSRLHSGVPSRFSGSGSGTDYSLTINNLEQEDLATYFCQQVNALPLTFGAGTKLELK	Internalization EC50	4.8

Lab note: 47G1B10 (antibody, V domains shown, Tested as chimeric antibody) VH: QVQLKQSGPGLVQPSQSLSITCTVSGFSLTTYGVHWVRQSPGKGLEWLGVIWTGGTTDYNAAFISRLSISKDNSKSQVFFKMNSLQANDTAIYYCARGPSSYWGQGTLVTVSA VL: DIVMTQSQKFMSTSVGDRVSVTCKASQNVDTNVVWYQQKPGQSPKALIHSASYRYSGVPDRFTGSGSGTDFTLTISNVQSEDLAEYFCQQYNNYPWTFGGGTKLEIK gave Internalization EC50 of 10.1
